Target: T1, sIL-6R (soluble IL-6 receptor; SBH Sciences) (human, UniProt P08887 20-365)
T1 construct: also called human IL-6R
T1 sequence: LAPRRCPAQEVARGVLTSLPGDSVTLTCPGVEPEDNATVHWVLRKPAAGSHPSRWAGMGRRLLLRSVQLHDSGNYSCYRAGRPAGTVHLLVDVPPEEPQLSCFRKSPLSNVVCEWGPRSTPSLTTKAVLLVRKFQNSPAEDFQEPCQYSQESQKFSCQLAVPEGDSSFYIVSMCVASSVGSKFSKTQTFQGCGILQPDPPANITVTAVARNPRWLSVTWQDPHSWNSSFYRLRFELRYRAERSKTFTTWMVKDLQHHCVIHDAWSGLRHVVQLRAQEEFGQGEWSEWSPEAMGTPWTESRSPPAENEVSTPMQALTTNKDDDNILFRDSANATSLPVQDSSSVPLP
Experiment: SPR (BIAcore 3000), antibody on chip, sIL-6R analyte, 25 C
Field: pKd. Provide a value for each of the binders that follow.
Answers are plain numbers, as −log10 of the molar value.

Binder	pKd
206# (antibody, human IgG1, kappa, V domains shown, also called Sample # 206) VH: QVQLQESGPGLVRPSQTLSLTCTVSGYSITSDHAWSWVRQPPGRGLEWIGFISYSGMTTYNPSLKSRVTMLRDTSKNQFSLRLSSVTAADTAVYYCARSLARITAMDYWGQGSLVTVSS VL: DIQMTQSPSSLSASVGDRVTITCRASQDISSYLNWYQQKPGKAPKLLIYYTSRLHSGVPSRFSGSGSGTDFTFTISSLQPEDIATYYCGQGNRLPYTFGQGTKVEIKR	12.23

For every listed record, write down its pKd.
1. 250# (antibody, human IgG1, kappa, V domains shown, also called Sample # 250) VH: QVQLQESGPGLVRPSQTLSLTCTVSGYSITSDHAWSWVRQPPGRGLEWIGYISYSGMTTYNPSLKSRVTMLRDTSKNQFSLRLSSVTAADTAVYYCARSLARITAMDYWGQGSLVTVSS VL: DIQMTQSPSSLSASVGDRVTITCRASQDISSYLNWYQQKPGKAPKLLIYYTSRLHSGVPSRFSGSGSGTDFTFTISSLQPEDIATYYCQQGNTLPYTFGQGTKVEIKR
2. 251# (antibody, human IgG1, kappa, V domains shown, also called Sample # 251) VH: QVQLQESGPGLVRPSQTLSLTCTVSGYSITSDHAWSWVRQPPGRGLEWIGYISYSGMITYNPSLKSRVTMLRDTSKNQFSLRLSSVTAADTAVYYCARSLARITAMDYWGQGSLVTVSS VL: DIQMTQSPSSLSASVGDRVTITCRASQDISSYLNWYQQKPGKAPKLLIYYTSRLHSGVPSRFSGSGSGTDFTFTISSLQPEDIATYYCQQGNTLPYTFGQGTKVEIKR
3. 202# (antibody, human IgG1, kappa, V domains shown) VH: QVQLQESGPGLVRPSQTLSLTCTVSGYSITSDHAWSWVRQPPGRGLEWIGYISYSGITTYNPSLKSRVTMLRDTSKNQFSLRLSSVTAADTAVYYCARVLARITAMDYWGQGSLVTVSS VL: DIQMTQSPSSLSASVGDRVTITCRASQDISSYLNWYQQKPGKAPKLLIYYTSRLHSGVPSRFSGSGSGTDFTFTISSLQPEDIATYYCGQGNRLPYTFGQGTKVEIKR

// result
9.45
9.09
10.63
